# assay_notes: Binding affinity to Integrin […] receptor by ELISA assay
# Set-up: species or system Homo sapiens
pIC50: −log10 of the molar value.
Consider the following compounds and their measured pIC50 readings.
readout_type: pIC50

• O=C(O)CC(c1ccc2c(c1)OCO2)n1ccc2cc(OCCc3ccc4c(n3)NCCC4)ccc21 (stereo not drawn) = 7.62
• O=C(O)CC(c1cccnc1)n1ccc2c(CCc3ccc4c(n3)NCCC4)cccc21 (stereo not drawn) = 6.60
• O=C(O)CC(c1ccccc1)n1ccc2cc(OCCc3ccc4c(n3)NCCC4)ccc21 (stereo not drawn) = 7.39
• O=C(O)CC(c1ccccc1)n1ccc2cc(CCCc3ccc4c(n3)NCCC4)ccc21 (stereo not drawn) = 5.96
• CC(C)[C@H]1C(=O)N[C@@H](CCCNC(=N)N)C(=O)NCC(=O)N[C@@H](CC(=O)O)C(=O)N[C@H](Cc2ccccc2)C(=O)N1C [CILENGITIDE] = 7.85
• O=C(O)CC(c1cccnc1)n1ccc2c(NCc3ccc4c(n3)NCCC4)cccc21 (stereo not drawn) = 5.03
• O=C(O)CC(c1ccccc1)n1ccc2c(CCc3ccc4c(n3)NCCC4)cccc21 (stereo not drawn) = 6.97
• O=C(O)CC(c1cccnc1)n1ccc2cc(OCCc3ccc4c(n3)NCCC4)ccc21 (stereo not drawn) = 7.82

----------
# assay_notes: Permeability from apical to basolateral side of human Caco-2 cell membrane
# Assay type: ADME, cell-based
readout_type: Papp A→B (×10⁻⁶ cm/s)

* O=C(O)CC(c1cccnc1)n1ccc2c(CCc3ccc4c(n3)NCCC4)cccc21 (stereo unspecified) | 2.2

----------
# assay_notes: Permeability from basolateral to apical side of human Caco-2 cell membrane
# Format: ADME, cell-based
readout_type: Papp B→A

- O=C(O)CC(c1cccnc1)n1ccc2c(CCc3ccc4c(n3)NCCC4)cccc21 (stereo unspecified): 2.5 ×10⁻⁶ cm/s

----------
# experimental_target: Integrin alpha-V/beta-3 (Homo sapiens, UniProt P05106+P06756)
# Sequence (P05106 27-788 limits assumed): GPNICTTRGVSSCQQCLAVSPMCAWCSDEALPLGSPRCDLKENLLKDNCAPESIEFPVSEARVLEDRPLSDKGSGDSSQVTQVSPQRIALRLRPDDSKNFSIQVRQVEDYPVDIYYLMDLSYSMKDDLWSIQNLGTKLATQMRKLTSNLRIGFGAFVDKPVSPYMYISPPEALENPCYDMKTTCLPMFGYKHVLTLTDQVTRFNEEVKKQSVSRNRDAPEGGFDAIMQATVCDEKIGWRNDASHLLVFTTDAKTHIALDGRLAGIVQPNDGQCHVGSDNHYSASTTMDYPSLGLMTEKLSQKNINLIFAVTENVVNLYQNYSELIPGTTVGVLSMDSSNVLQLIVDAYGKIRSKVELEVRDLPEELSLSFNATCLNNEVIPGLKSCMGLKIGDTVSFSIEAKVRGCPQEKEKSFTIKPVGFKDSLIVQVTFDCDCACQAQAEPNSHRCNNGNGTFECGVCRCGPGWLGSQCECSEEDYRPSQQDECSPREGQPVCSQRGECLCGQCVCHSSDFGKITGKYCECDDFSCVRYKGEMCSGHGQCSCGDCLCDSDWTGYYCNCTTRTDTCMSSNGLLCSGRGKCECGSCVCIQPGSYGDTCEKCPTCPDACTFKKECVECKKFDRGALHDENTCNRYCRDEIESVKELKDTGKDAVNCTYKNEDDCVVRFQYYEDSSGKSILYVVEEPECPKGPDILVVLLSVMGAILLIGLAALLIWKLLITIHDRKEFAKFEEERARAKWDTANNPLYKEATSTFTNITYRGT
# Sequence (P06756 31-889 limits assumed): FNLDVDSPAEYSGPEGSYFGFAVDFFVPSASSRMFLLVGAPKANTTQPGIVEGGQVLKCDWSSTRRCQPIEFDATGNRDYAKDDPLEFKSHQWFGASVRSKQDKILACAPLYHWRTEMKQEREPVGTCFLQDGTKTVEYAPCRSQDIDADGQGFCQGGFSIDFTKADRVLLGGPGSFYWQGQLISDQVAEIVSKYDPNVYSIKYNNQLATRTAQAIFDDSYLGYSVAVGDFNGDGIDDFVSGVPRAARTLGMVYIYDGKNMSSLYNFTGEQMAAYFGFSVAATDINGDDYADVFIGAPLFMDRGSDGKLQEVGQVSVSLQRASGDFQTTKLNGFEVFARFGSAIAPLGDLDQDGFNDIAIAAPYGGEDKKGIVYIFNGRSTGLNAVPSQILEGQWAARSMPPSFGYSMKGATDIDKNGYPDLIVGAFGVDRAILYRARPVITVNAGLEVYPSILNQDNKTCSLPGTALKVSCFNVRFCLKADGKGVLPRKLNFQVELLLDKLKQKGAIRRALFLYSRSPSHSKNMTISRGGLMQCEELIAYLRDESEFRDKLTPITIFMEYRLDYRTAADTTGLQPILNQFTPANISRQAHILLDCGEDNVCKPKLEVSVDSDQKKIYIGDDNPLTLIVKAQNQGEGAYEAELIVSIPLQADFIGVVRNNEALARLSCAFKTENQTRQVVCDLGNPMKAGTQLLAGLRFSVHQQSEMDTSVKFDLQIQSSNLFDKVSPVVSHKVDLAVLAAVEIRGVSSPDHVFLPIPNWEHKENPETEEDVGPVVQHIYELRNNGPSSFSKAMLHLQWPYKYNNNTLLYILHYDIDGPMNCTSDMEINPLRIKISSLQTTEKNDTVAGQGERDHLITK
# Sequence (P06756 891-1048 limits assumed): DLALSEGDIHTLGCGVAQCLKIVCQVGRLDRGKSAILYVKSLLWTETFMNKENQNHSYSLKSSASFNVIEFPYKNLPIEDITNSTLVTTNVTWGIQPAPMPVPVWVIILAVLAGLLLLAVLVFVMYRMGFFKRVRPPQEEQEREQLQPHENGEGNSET
# assay_notes: Binding affinity to Integrin alpha-v-beta-3 receptor by ELISA assay
readout_type: IC50 (nM)

* O=C(O)CC(c1ccccc1)n1ccc2cc(CCCc3ccc4c(n3)NCCC4)ccc21 (centres undefined) | 14
* O=C(O)CC(c1cccnc1)n1ccc2c(NCc3ccc4c(n3)NCCC4)cccc21 (centres undefined) | 4.4
* O=C(O)CC(c1ccccc1)n1ccc2c(CCc3ccc4c(n3)NCCC4)cccc21 (centres undefined) | 0.96
* O=C(O)CC(c1cccnc1)n1ccc2c(CCc3ccc4c(n3)NCCC4)cccc21 (centres undefined) | 0.5
